- TARGET_OR_SYSTEM: human mGlu4 receptor (Homo sapiens (Human))
- Sequence (Q14833 33-912): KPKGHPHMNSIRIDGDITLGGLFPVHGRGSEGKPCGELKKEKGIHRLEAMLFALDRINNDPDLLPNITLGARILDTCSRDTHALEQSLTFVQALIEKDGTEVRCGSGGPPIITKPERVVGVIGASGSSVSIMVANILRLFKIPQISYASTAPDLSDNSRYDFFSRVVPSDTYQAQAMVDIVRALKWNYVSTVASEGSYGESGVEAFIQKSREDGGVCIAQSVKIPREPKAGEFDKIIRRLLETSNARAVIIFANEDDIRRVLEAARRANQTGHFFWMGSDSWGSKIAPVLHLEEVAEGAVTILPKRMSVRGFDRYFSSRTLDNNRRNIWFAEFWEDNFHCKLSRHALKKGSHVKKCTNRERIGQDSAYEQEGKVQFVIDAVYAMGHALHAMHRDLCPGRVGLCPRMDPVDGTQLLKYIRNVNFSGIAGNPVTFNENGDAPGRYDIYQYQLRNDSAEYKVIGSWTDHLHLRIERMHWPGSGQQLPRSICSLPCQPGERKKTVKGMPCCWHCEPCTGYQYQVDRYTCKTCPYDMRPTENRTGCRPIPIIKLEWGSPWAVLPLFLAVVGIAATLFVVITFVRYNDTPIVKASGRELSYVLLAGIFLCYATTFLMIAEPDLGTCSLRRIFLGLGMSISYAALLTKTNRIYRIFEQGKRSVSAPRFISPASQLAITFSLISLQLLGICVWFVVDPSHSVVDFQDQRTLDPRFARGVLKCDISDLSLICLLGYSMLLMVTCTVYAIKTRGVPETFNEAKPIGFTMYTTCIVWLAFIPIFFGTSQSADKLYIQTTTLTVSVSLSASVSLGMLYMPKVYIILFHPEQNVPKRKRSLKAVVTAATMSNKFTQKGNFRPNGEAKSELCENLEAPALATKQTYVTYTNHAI
- ASSAY_OVERVIEW: Ca2+ mobilization in vitro assay on recombinant human mGlu4 expressed in HEK293 cells (PAM)
- Format: cell-based
- DETAILS: HEK293 cells, human mGlu4, in presence of EC20 of L-AP4; read-out: EC50 (nM) mGlu4PAM
Listing: EC50 of selected compounds
Give your result in nM as a bare value.

{"columns": ["COMPOUND", "MEASUREMENT_UNITS", "EC50"],
 "data": [
  ["Cc1cncc(C)c1N1CCN2C(=O)N(c3c(F)cc(C#Cc4ccccc4)cc3F)C(=O)C[C@@]2(C)C1=O", "nM", 201],
  ["Cn1nccc1N1CCN2C(=O)N(c3c(F)cc(C#Cc4ccccc4)cc3F)C(=O)CC2(C)C1=O (racemic)", "nM", 125],
  ["CC[C@@]12CC(=O)N(c3c(F)cc(C#Cc4ccccc4)cc3F)C(=O)N1CCN(c1cccnc1)C2=O", "nM", 95],
  ["Cn1ccc(N2CCN3C(=O)N(c4c(F)cc(C#Cc5ccccc5)cc4F)C(=O)C[C@@]3(C)C2=O)n1", "nM", 165],
  ["Cc1cccc(CN2CCN3C(=O)N(c4c(F)cc(C#Cc5ccccc5)cc4F)C(=O)CC3(C)C2=O)c1 (racemic)", "nM", 173],
  ["CC12CC(=O)N(c3ccc(C#Cc4ccccc4)cc3F)C(=O)N1CCN(c1cccnc1)C2=O (racemic)", "nM", 267]
]}

Hello, please tell me recorded EC50 for this one: COC[C@@]12CC(=O)N(c3c(F)cc(C#Cc4ccccc4)cc3F)C(=O)N1CCN(c1cnn(C)c1)C2=O
61

Could you please provide reported EC50 for CC12CC(=O)N(c3c(F)cc(C#Cc4ccccc4)cc3Cl)C(=O)N1CCN(c1ccccn1)C2=O (racemic) ? Thanks!
128

Note down EC50 recorded for COC[C@@]12CC(=O)N(c3c(F)cc(C#Cc4ccccc4)cc3F)C(=O)N1CCN(c1cccnc1)C2=O
169

Give reported EC50 value for Cc1nccn1CCN1CCN2C(=O)N(c3c(F)cc(C#Cc4ccccc4)cc3F)C(=O)C[C@@]2(C)C1=O
282

For the compound C[C@@]12CC(=O)N(c3c(F)cc(C#Cc4ccccc4)cc3F)C(=O)N1CCN(c1cccnn1)C2=O , report EC50.
55

Return value of EC50 for input C[C@@]12CC(=O)N(c3c(F)cc(C#Cc4ccccc4)cc3F)C(=O)N1CCN(c1cccnc1)C2=O , no commentary.
73

Retrieve EC50 measured for Cn1cc(CCN2CCN3C(=O)N(c4c(F)cc(C#Cc5ccccc5)cc4F)C(=O)C[C@@]3(C)C2=O)cn1 and print it.
125

Please give measured EC50 of the following entry: Cc1cncc(N2CCN3C(=O)N(c4c(F)cc(C#Cc5ccccc5)cc4F)C(=O)CC3(C)C2=O)c1 (racemic)
105

Provide one value: measured EC50 of CC12CC(=O)N(c3c(F)cc(C#Cc4ccccc4)cc3F)C(=O)N1CCN(c1ncccn1)C2=O (racemic)
135

Tell us which EC50 value is on record for Cc1nc(N2CCN3C(=O)N(c4c(F)cc(C#Cc5ccccc5)cc4F)C(=O)CC3(C)C2=O)cn1C (racemic)
145

Could you please provide reported EC50 for Cn1cnc(N2CCN3C(=O)N(c4c(F)cc(C#Cc5ccccc5)cc4F)C(=O)CC3(C)C2=O)c1 (racemic) ? Thanks!
214
